Sourced from ChEMBL document CHEMBL4373746

assay: Unbound tissue partition coefficient, ratio of drug level in skeletal muscle to plasma in Wistar Han rat at 1 to 2 mg/kg, iv infused for 10 to 20 hrs by LC-MS/MS analysis; details: other tissue
Quantity name: Kp uu

Compound | Numeric result
COc1cc2nc(N3CCN(C(=O)c4ccco4)CC3)nc(N)c2cc1OC [PRAZOSIN] | 0.68
CC(C)c1nc(CN(C)C(=O)N[C@H](C(=O)N[C@@H](Cc2ccccc2)C[C@H](O)[C@H](Cc2ccccc2)NC(=O)OCc2cncs2)C(C)C)cs1 [RITONAVIR] | 0.56

###

assay: Fraction unbound in Wistar Han rat white adipose tissue at 2 uM incubated for 6 hrs by equilibrium dialysis method
Quantity name: fraction unbound at 6 h, 2 µM

Here's what some known entries look like.
Molecule | Quantity name | Numeric result
C[C@H](c1nc2cnc(N3CCC[C@@H](C(=O)N4CCCC4)C3)nc2[nH]1)n1cc(Cl)cn1 | fraction unbound at 6 h, 2 µM | 0.256
CC(C)C[C@H](Nc1ccc(C(=O)NCCC(=O)O)cn1)c1ccc(-c2ccc(C(F)(F)F)cn2)cc1 | fraction unbound at 6 h, 2 µM | 0.119
C[C@H]1C[C@H]2CSC(N)=N[C@@]2(c2cc(C#N)ccc2F)CO1 | fraction unbound at 6 h, 2 µM | 1
COc1cc2c(cc1Cc1ccccc1)C[C@H](N)C(=O)N2OC(=O)N(C)C | fraction unbound at 6 h, 2 µM | 0.214
CC(C)n1ncc2c1C(=O)CC1(CCN(C(=O)c3ccc4[nH]nc(C(N)=O)c4c3)CC1)C2 | fraction unbound at 6 h, 2 µM | 0.398

1 = O=C(O)c1c[nH]c2cc(Cl)c(-c3ccc(CC(=O)N4CCOCC4)cc3)cc12
2 = Oc1noc2cc(Cl)c(Cl)cc12
Prompt: Of the pair 1 and 2 , name the member with the lesser recorded fraction unbound at 6 h, 2 µM. Give the label under which the chosen entry appears.
Completion: 1
(1: 0.386, 2: 0.714)

A = CC(C)(CC1Cc2ccccc2C1)NC[C@@H](O)COc1cc(C2CC3CC2C2C(C(=O)O)C32)ccc1C#N (stereo partly drawn)
B = O=C(NC1CC1)c1nc2cccnn2c1-c1ccc2ncnn2c1
C = Cn1nc(C(=O)NCCN2CCOCC2)cc1-c1cc2ccccc2[nH]1
D = Cc1ccc(NC(=O)N2CCN(Cc3sc4ccccc4c3C)CC2)nc1
E = CN(C)C(=O)c1cc(CC(=O)O)ccc1NC(=O)c1ccccc1-c1ccc(C(F)(F)F)cc1
Prompt: Order the 5 molecules from highest to lowest fraction unbound at 6 h, 2 µM. Labels, requested order.
Completion: B, E, C, A, D

I = CC1(OC(=O)N2CCC(n3ncc(COc4ccc(C(N)=O)cc4F)c3C#N)CC2)CC1
II = O=C(NC1CCCC1)C1CCN(c2nc3cc(Cl)ccc3o2)CC1
Prompt: Of the pair I and II , name the member with the lesser recorded fraction unbound at 6 h, 2 µM. Give the label under which the chosen entry appears.
Completion: II

a = CCCn1cnc(C[C@H](CCCN)C(=O)O)c1 [UK-396,082]
b = CN(C)C[C@@H](OC(=O)N1Cc2c(NC(=O)C3(C(F)(F)F)CC3)n[nH]c2C1(C)C)c1ccccc1
c = Cc1nc2cc(-c3cc(F)cc(C#N)c3)ccc2s1
d = CCC[C@H](Oc1cc(C)c(-n2cc(C(F)(F)F)cn2)c(C)c1)c1ccc(C(=O)NCCC(=O)O)cc1 [PF-06291874]
e = Cc1ccc(CC(C)(C)NC[C@@H](O)CO[C@H](C)c2ccccc2-c2ccc(C(=O)O)c(C)c2)cc1F
Prompt: Order the 5 molecules from highest to lowest fraction unbound at 6 h, 2 µM. Labels, requested order.
Completion: a, b, e, d, c
(a: 0.541, b: 0.205, e: 0.126, d: 0.0593, c: 0.000864)
